Recorded IC50 values for a group of compounds are listed next.
molecular target: K-Ras G12S (Homo sapiens, UniProt P01116, G12S); construct: made in house; host or cells: E. coli BL21 (DE3); assay: HTRF resonance energy transfer assay, K-Ras G12S / SOS1 interaction; format: biochemical; conditions: HTRF assay of Example 5; read-out: IC50 against K-Ras G12S
Sequence (P01116 1-188 isoform P01116-2 G12S): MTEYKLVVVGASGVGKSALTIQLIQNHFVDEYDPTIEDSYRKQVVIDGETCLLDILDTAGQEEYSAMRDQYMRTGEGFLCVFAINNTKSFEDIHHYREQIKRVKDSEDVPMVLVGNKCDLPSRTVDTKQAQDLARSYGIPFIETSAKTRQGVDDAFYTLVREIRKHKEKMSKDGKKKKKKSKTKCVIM

{"compound": "N#Cc1c(N)sc2c(F)ccc(-c3c(Cl)c4c5c(nc(OC[C@@]67CCCN6C[C@H](F)C7)nc5c3F)N(CC3CC3C#N)[C@@H](C(F)F)CO4)c12 (stereo partly drawn) [Compound 853]", "IC50": "< 100 nM"}
{"compound": "N#Cc1c(N)sc2c(F)ccc(-c3c(Cl)c4c5c(nc(OC[C@@]67CCCN6C[C@H](F)C7)nc5c3F)N(CCC(F)F)CCO4)c12 [Compound 807]", "IC50": "< 100 nM"}
{"compound": "N#Cc1c(N)sc2c(F)ccc(-c3c(Cl)c4c5c(nc(OC[C@@]67CCCN6C[C@H](F)C7)nc5c3F)N(CC(F)F)C(c3cncs3)CO4)c12 (stereo partly drawn) [Compound 789]", "IC50": "< 100 nM"}
{"compound": "N#Cc1c(N)sc2c(F)ccc(-c3c(Cl)c4c5c(nc(OC[C@@]67CCCN6C[C@H](F)C7)nc5c3F)N[C@@H](C3(O)CC3)CO4)c12 [Compound 1076]", "IC50": "< 100 nM"}
{"compound": "C[C@H]1CN(C23CC(C2)C3)c2nc(OC[C@@]34CCCN3C[C@H](F)C4)nc3c(F)c(-c4ccc(F)c5sc(N)c(C#N)c45)c(Cl)c(c23)O1 [Compound 687]", "IC50": "< 100 nM"}
{"compound": "C[C@@H]1C[C@@H](N2CCOc3c(Cl)c(-c4ccc(F)c5sc(N)c(C#N)c45)c(F)c4nc(OC[C@@]56CCCN5C[C@H](F)C6)nc2c34)CN1 [Compound 1016]", "IC50": "< 100 nM"}

---

tested on: SW620 cells; experiment: Ras cellular assay, growth of cells with K-Ras G12V mutation (CellTiter-Glo); format: cell-based; conditions: Homo sapiens, SW-620; cell growth, Example 9, G12V mutation; read-out: IC50 against SW620 cells
pIC50: −log10 of the molar value.
Catalogue of compounds with associated pIC50
measured.quantity: pIC50

{"compound": "CC(C1CC1)N1CCOc2c(Cl)c(-c3ccc(F)c4sc(N)c(C#N)c34)c(F)c3nc(OC[C@@]45CCCN4C[C@H](F)C5)nc1c23 (stereo partly drawn)", "assay.result": "> 5.30"}
{"compound": "C[C@H]1COc2c(Cl)c(-c3ccc(F)c4sc(N)c(C#N)c34)c(F)c3nc(OC[C@@]45CCCN4C[C@H](F)C5)nc(c23)N1CC1CC1C#N (stereo partly drawn)", "assay.result": "> 5.30"}
{"compound": "COCCN1CCOc2c(Cl)c(-c3ccc(F)c4sc(N)c(C#N)c34)c(F)c3nc(OC[C@@]45CCCN4C[C@H](F)C5)nc1c23", "assay.result": "> 5.30"}
{"compound": "CC(=O)NC1CCC(N2CCOc3c(Cl)c(-c4ccc(F)c5sc(N)c(C#N)c45)c(F)c4nc(OC[C@@]56CCCN5C[C@H](F)C6)nc2c34)C1 (stereo partly drawn)", "assay.result": "> 5.30"}
{"compound": "N#Cc1c(N)sc2c(F)ccc(-c3c(Cl)c4c5c(nc(OC[C@@]67CCCN6C[C@H](F)C7)nc5c3F)N(C3CCCC3O)CCO4)c12 (stereo partly drawn)", "assay.result": "> 5.30"}
{"compound": "CC1(C)CC(N2CCOc3c(Cl)c(-c4ccc(F)c5sc(N)c(C#N)c45)c(F)c4nc(OC[C@@]56CCCN5C[C@H](F)C6)nc2c34)CO1 (stereo partly drawn)", "assay.result": "> 5.30"}
